Molecular target: T1, Ep-CAM (UniProt P16422 24-265, limits assumed)
T1 construct: Antigen of the Biacore analysis of ING-1 variants
T1 sequence (looked up): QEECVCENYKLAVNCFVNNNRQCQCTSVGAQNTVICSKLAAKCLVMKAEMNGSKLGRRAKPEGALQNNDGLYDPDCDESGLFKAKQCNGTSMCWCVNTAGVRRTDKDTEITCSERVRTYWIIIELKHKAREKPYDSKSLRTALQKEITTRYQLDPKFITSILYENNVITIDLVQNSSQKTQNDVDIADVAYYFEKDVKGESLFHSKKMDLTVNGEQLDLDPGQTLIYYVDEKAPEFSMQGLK
Experiment: Biacore, Fab periplasmic extract
REPORTED PROPERTY: binding result

- BINDER: "ING-1 heavy chain G100Q (Fab, V domains shown) VH: QIQLVQSGPELKKPGETVKISCKASGYTFTKYGMNWVKQAPGKGLKWMGWINTYTEEPTYGDDFKGRFAFSLETSASTANLQINNLKSEDTATYFCARFQSAVDYWGQGTSVTVSS VL: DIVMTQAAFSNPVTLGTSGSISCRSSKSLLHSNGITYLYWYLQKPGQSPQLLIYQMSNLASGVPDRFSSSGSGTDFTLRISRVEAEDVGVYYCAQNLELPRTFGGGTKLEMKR"
  REPORTED PROPERTY: "binding result"
  RESULT: "no binding"
- BINDER: "ING-1 heavy chain T53R (Fab, V domains shown) VH: QIQLVQSGPELKKPGETVKISCKASGYTFTKYGMNWVKQAPGKGLKWMGWINRYTEEPTYGDDFKGRFAFSLETSASTANLQINNLKSEDTATYFCARFGSAVDYWGQGTSVTVSS VL: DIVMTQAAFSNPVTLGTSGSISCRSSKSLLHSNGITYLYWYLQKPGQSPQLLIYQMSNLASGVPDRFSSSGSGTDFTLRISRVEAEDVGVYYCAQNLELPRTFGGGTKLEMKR"
  REPORTED PROPERTY: "binding result"
  RESULT: "no binding"
- BINDER: "ING-1 heavy chain D104Y (Fab, V domains shown) VH: QIQLVQSGPELKKPGETVKISCKASGYTFTKYGMNWVKQAPGKGLKWMGWINTYTEEPTYGDDFKGRFAFSLETSASTANLQINNLKSEDTATYFCARFGSAVYYWGQGTSVTVSS VL: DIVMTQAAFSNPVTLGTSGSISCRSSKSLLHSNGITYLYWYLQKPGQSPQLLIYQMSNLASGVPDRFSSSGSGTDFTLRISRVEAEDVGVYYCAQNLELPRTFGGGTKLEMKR"
  REPORTED PROPERTY: "binding result"
  RESULT: "no binding"
